PROTOCOL TEXT: Metabolic stability in cryopreserved human hepatocytes after 30 mins
Format: ADME, cell-based, Hepatocyte
CONDITIONS USED: read-out: Stability
PROPERTY MEASURED: remaining at 0.5 h (%)

COCc1c(CN[C@H]2CC[C@@H](F)C2)nn(C)c1-c1cc(F)cc(F)c1 = 39
Cn1nc(CN[C@H]2CC[C@@H](F)C2)c(Cl)c1-c1cc(F)cc(F)c1 = 40
Cc1ncc(-c2c(C)c(CN[C@H]3CC[C@@H](F)C3)nn2-c2ncccc2Cl)cc1F = 39
